- Test system: M14 melanoma
- protocol-description: NCI-60 one-dose screen, 48 h (100 = growth as untreated, 0 = no growth, -100 = all killed)
- recorded-conditions: 10 µM unless noted
About 83,000 compounds went through this panel and 20% of them were active in at least one assay; those are over-represented in the sample as a whole.
So basically, if growth comes in under 20% it's criterion met, and if it's 20% or more it's criterion not met.

> print(dat)
                                   compound  qualitative.label
1  CCCCC/C=C\C/C=C/CCCCCCCCNC(=O)Nc1ccc([N+](=O)[O-])cc1  criterion not met
2  Cc1cc(NS(=O)(=O)c2ccc(NC(=O)COc3ccc(-c4cc5ccccc5[nH]4)cc3)cc2)no1      criterion met
3  COc1ccc(/C=C2\SC(=O)N(CN3CCN(c4cc5c(cc4F)c(=O)c(C(=O)O)cn5C4CC4)CC3)C2=O)cc1  criterion not met

Hello, I'm reviewing records and need to know if growth of `COc1cc(NC(=O)COc2ccccc2)c(C(N)=O)cc1OC` is below 20%. Could you check? criterion met

Hello, I'm reviewing records and need to know if growth of CCC12CCC3c4ccc(O)cc4CCC3C1CC(O)C2O (stereo not given) is below 20%. Could you check? criterion not met
